Target: V600EBRAF (Homo sapiens, UniProt P15056, V600E)
Sequence (P15056 whole entry V600E): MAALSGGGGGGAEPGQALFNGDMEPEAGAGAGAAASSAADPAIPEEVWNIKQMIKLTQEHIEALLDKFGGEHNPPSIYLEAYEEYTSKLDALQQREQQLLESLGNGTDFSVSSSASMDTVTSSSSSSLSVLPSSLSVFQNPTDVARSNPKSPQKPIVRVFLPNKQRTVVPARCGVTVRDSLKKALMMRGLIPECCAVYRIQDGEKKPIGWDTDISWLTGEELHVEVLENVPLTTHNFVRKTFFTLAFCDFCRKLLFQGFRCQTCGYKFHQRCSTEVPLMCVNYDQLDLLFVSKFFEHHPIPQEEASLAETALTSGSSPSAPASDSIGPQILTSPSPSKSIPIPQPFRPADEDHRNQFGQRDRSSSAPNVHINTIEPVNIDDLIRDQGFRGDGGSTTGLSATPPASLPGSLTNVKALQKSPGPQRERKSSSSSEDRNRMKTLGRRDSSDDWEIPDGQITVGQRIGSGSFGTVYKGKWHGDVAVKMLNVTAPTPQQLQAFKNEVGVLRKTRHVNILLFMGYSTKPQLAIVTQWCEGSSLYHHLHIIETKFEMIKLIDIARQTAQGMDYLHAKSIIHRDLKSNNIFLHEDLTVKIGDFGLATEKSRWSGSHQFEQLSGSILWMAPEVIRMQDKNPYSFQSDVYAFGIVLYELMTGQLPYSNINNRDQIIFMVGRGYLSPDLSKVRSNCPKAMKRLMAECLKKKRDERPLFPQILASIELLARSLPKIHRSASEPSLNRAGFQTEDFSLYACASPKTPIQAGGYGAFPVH
Assay: V600EBRAF kinase assay (MEK1/2 phosphorylation as endpoint)
Details: isolated full length V600EBRAF kinase activity
Procedure: The biological activities of compounds 1a–p were assessed in three assays: • (1) Inhibition of the isolated ^V600EBRAF kinase activity (IC50 BRAF), measuring MEK1/2 phosphorylation as the endpoint.[15] […]
pIC50: −log10 of the molar value.
Below: a set of entries, each annotated with reported pIC50.
TEST READOUT: pIC50

INSERT INTO measurements (molecule, censoring_operator, number) VALUES
  ('CN(C)CCOc1ccc(-c2nc(-c3ccc4c(c3)CC3CC(=O)NN=C43)c(-c3ccncc3)[nH]2)cc1 (stereo not shown) [1g]', '<', 5.00),
  ('CN(C)CCOc1ccc(-c2nc(-c3ccc(-c4cc[nH]n4)cc3)c(-c3ccncc3)[nH]2)cc1 [1a]', '=', 5.80),
  ('CN(C)CCOc1ccc(-c2nc(-c3ccc(-c4n[nH]cc4C#N)cc3)c(-c3ccncc3)[nH]2)cc1 [1c]', '<', 5.00),
  ('CN(C)CCN1CCN(C(=O)c2cc(-c3ccc4c(c3)Cc3cn[nH]c3-4)c(-c3ccncc3)o2)CC1 [1l]', '=', 5.44),
  ('CN(C)CCOc1ccc(-c2nc(-c3ccc4c(c3)Cc3cn[nH]c3-4)c(-c3ccncc3)[nH]2)cc1 [1h]', '=', 6.64),
  ('CN(C)CCOc1ccc(-c2nc(-c3ccc4c(c3)CCc3cn[nH]c3-4)c(-c3ccncc3)[nH]2)cc1 [1e]', '=', 5.74),
  ('O=C(c1cc(-c2ccc3c(c2)Cc2cn[nH]c2-3)c(-c2ccncc2)o1)N1CCNCC1 [1n]', '=', 5.56),
  ('CN1CCN(c2ccc(-c3nc(-c4ccc5c(c4)Cc4cn[nH]c4-5)c(-c4ccncc4)[nH]3)cc2)CC1 [1j]', '=', 6.62),
  ('c1cc(-c2[nH]c(C3CCNCC3)nc2-c2ccc3c(c2)Cc2cn[nH]c2-3)ccn1 [1k]', '=', 5.88),
  ('CN(C)CCOc1ccc(-c2nc(-c3ccc4c(c3)Cc3nn[nH]c3-4)c(-c3ccncc3)[nH]2)cc1 [1i]', '<', 5.00),
  ('O=C(c1cc(-c2ccc3c(c2)Cc2cn[nH]c2-3)c(-c2ccncc2)o1)N1CCOCC1 [1m]', '=', 5.67),
  ('CN(C)CCN1CCN(C(=O)c2cc(-c3ccc4c(c3)Cc3cnn(C)c3-4)c(-c3ccncc3)o2)CC1 [1p]', '<', 5.00),
  ('CN(C)CCOc1ccc(-c2nc(-c3ccc4c(ccc5cn[nH]c54)c3)c(-c3ccncc3)[nH]2)cc1 [1f]', '=', 5.77),
  ('Cc1c[nH]nc1-c1ccc(-c2nc(-c3ccc(OCCN(C)C)cc3)[nH]c2-c2ccncc2)cc1 [1b]', '=', 5.92),
  ('CN1CCN(C(=O)c2cc(-c3ccc4c(c3)Cc3cn[nH]c3-4)c(-c3ccncc3)o2)CC1 [1o]', '=', 5.12),
  ('CN(C)CCOc1ccc(-c2nc(-c3ccc(-c4n[nH]cc4Cl)cc3)c(-c3ccncc3)[nH]2)cc1 [1d]', '=', 5.43);

----------
Experiment: PK assessment in mice after intraperitoneal administration
Format: in vivo, mouse
Conditions: CD1 nu/nu (Crl:CD1-Foxn1nu), mouse, ip; CD1 nu/nu female mice, intraperitoneal 4 mg/kg, cassette dosing, plasma; read-out: half-life (T1/2) (converted)
TEST READOUT: half-life (h)

INSERT INTO assay_data (smiles_input, quantity_unit, number) VALUES
  ('CN(C)CCOc1ccc(-c2nc(-c3ccc4c(c3)Cc3cn[nH]c3-4)c(-c3ccncc3)[nH]2)cc1', 'h', 3.9);

----------
Test system: WM266.4 melanoma cells
Label rule met when GI50 < 9 µM; otherwise rule not met.

INSERT INTO assay_data (compound, label_value) VALUES
  ('Cc1c[nH]nc1-c1ccc(-c2nc(-c3ccc(OCCN(C)C)cc3)[nH]c2-c2ccncc2)cc1 [1b]', 'rule met'),
  ('c1cc(-c2[nH]c(C3CCNCC3)nc2-c2ccc3c(c2)Cc2cn[nH]c2-3)ccn1 [1k]', 'rule not met'),
  ('CN1CCN(c2ccc(-c3nc(-c4ccc5c(c4)Cc4cn[nH]c4-5)c(-c4ccncc4)[nH]3)cc2)CC1 [1j]', 'rule met'),
  ('CN(C)CCOc1ccc(-c2nc(-c3ccc4c(c3)Cc3cn[nH]c3-4)c(-c3ccncc3)[nH]2)cc1 [1h]', 'rule met');

----------
Tested on: WM266.4 melanoma cells
Experiment: Growth inhibition of WM266.4 cells by sulforhodamine-B (SRB)
Format: cell-based, human
Settings: Homo sapiens, WM 266-4; WM266.4 cells, sulforhodamine-B
Label Fulfilled when GI50 < 2000 nM; otherwise Not fulfilled.

INSERT INTO assay_data (smiles_input, tgt, label_value) VALUES
  ('CN1CCN(C(=O)c2cc(-c3ccc4c(c3)Cc3cn[nH]c3-4)c(-c3ccncc3)o2)CC1', 'WM266.4 melanoma cells', 'Fulfilled'),
  ('O=C(c1cc(-c2ccc3c(c2)Cc2cn[nH]c2-3)c(-c2ccncc2)o1)N1CCNCC1', 'WM266.4 melanoma cells', 'Fulfilled'),
  ('O=C(c1cc(-c2ccc3c(c2)Cc2cn[nH]c2-3)c(-c2ccncc2)o1)N1CCOCC1', 'WM266.4 melanoma cells', 'Fulfilled'),
  ('CN(C)CCOc1ccc(-c2nc(-c3ccc(-c4cc[nH]n4)cc3)c(-c3ccncc3)[nH]2)cc1', 'WM266.4 melanoma cells', 'Not fulfilled'),
  ('CN(C)CCOc1ccc(-c2nc(-c3ccc(-c4n[nH]cc4Cl)cc3)c(-c3ccncc3)[nH]2)cc1', 'WM266.4 melanoma cells', 'Not fulfilled'),
  ('CN(C)CCN1CCN(C(=O)c2cc(-c3ccc4c(c3)Cc3cn[nH]c3-4)c(-c3ccncc3)o2)CC1', 'WM266.4 melanoma cells', 'Fulfilled'),
  ('CN(C)CCOc1ccc(-c2nc(-c3ccc4c(ccc5cn[nH]c54)c3)c(-c3ccncc3)[nH]2)cc1', 'WM266.4 melanoma cells', 'Not fulfilled'),
  ('CN(C)CCOc1ccc(-c2nc(-c3ccc(-c4n[nH]cc4C#N)cc3)c(-c3ccncc3)[nH]2)cc1', 'WM266.4 melanoma cells', 'Not fulfilled');

----------
Target: BRAF (Homo sapiens)
Sequence (P15056 whole entry): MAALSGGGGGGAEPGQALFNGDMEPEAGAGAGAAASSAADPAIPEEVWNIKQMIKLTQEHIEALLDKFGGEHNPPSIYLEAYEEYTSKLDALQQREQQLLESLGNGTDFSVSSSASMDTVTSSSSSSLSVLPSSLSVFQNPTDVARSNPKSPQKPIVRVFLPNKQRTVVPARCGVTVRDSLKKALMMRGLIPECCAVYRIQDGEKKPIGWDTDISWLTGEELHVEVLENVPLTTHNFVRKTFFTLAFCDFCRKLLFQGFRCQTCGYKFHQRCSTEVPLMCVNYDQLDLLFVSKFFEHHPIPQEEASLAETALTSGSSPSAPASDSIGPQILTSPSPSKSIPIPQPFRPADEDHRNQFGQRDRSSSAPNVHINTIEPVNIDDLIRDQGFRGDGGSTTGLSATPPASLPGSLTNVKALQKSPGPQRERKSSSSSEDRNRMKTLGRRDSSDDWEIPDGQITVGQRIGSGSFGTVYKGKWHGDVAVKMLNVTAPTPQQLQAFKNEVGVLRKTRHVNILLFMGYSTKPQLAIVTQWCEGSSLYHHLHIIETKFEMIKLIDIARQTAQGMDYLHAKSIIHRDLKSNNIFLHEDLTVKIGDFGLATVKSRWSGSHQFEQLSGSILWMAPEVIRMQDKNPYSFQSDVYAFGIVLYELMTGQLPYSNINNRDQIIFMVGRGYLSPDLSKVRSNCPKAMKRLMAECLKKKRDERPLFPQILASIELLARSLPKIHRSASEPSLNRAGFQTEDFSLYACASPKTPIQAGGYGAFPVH
TEST READOUT: Kd

INSERT INTO measurements (smiles_input, result) VALUES
  ('CN(C)CCOc1ccc(-c2nc(-c3ccc4c(c3)Cc3cn[nH]c3-4)c(-c3ccncc3)[nH]2)cc1', '6.1 nM');

----------
Test: PK assessment in mice after intraperitoneal administration
Assay type: in vivo, mouse
Conditions: CD1 nu/nu (Crl:CD1-Foxn1nu), mouse, ip; CD1 nu/nu female mice, intraperitoneal 4 mg/kg, cassette dosing, plasma; read-out: maximal plasma concentration (Cmax)
TEST READOUT: Cmax (µM)

INSERT INTO measurements (compound, test_readout, number) VALUES
  ('CN(C)CCOc1ccc(-c2nc(-c3ccc4c(c3)Cc3cn[nH]c3-4)c(-c3ccncc3)[nH]2)cc1 [1h]', 'Cmax', 5.8);
